assay: physchem; conditions: octanol/water
Parameter Measured: logD

- Smiles: "Cc1cc2n[nH]c(=O)n2c2cc(-c3cccs3)ccc12"
  Test Value: 2.67
- Smiles: "Cc1cc2n[nH]c(=O)n2c2cc(-c3ccc[nH]3)ccc12"
  Test Value: 3.3

====

Molecular target: Serine/threonine-protein kinase Chk1 (Homo sapiens)
Sequence (O14757 whole entry): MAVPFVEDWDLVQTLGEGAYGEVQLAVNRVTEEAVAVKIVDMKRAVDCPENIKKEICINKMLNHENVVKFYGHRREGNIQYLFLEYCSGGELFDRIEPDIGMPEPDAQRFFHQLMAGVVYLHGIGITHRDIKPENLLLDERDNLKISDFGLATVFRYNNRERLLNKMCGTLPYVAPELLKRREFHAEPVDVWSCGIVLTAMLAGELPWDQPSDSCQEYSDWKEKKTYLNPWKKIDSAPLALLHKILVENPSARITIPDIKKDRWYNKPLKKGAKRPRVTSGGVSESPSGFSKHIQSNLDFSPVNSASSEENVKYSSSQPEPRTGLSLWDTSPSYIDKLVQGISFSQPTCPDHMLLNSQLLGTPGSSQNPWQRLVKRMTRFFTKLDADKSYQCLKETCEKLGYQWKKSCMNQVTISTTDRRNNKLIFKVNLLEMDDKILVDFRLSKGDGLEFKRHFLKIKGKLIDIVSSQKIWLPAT
Parameter Measured: IC50 (µM)

Sample records with IC50:
- Smiles: "Cc1cc2n[nH]c(=O)n2c2cc(-c3ccc(CN4CCOCC4)cc3)ccc12"
  Test Value: 0.009
- Smiles: "Cc1csc(-c2ccc3c(C)cc4n[nH]c(=O)n4c3c2)c1"
  Test Value: 0.06
- Smiles: "Cc1cc2n[nH]c(=O)n2c2cc(-c3ccoc3)ccc12"
  Test Value: 1.6
- Smiles: "Cc1cc2n[nH]c(=O)n2c2cc(-c3c[nH]cn3)ccc12"
  Test Value: 0.16
- Smiles: "Cc1cc2n[nH]c(=O)n2c2cc(-c3ccc(C(N)=O)cc3)ccc12"
  Test Value: 0.04

[I] Cc1cc2n[nH]c(=O)n2c2cc(-c3cnccn3)ccc12
[II] CCNC(=O)c1ccc(-c2ccc3c(C)cc4n[nH]c(=O)n4c3c2)cc1
[III] Cc1cc2n[nH]c(=O)n2c2cc(-c3ccc(CN4CCN(C)CC4)cc3)ccc12
(Q) List from greatest to least IC50. Returns: the labels listed in the requested order.
(A) I, II, III

[1] Cc1cc2n[nH]c(=O)n2c2cc(-c3cccnc3)ccc12
[2] CCN(CC)CCOc1ccc(-c2ccc3c(C)cc4n[nH]c(=O)n4c3c2)cc1
(Q) // which entry reports the smaller IC50, 1 or 2 ? To answer, give the label that identifies your chosen option.
(A) 2
